Measured IC50 by item
- Experimental System: human α4β2-nAChR (Homo sapiens, UniProt P17787+P43681)
- Sequence (P43681 29-627 limits assumed): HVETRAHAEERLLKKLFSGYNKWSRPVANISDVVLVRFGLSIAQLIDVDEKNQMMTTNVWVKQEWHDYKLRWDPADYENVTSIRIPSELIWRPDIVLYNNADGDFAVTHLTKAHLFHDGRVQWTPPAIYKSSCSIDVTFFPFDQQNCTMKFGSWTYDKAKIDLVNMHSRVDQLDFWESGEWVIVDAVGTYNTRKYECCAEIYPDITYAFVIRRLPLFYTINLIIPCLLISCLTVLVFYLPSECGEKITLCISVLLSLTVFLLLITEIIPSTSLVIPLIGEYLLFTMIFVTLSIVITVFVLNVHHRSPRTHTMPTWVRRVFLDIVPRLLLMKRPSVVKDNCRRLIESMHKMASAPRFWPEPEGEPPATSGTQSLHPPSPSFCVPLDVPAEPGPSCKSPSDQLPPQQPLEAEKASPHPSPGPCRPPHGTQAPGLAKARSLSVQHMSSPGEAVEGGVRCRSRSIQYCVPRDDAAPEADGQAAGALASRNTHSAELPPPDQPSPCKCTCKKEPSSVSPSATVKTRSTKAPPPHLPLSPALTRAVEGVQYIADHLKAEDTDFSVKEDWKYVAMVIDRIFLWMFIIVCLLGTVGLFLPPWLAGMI
- Sequence (P17787 26-502): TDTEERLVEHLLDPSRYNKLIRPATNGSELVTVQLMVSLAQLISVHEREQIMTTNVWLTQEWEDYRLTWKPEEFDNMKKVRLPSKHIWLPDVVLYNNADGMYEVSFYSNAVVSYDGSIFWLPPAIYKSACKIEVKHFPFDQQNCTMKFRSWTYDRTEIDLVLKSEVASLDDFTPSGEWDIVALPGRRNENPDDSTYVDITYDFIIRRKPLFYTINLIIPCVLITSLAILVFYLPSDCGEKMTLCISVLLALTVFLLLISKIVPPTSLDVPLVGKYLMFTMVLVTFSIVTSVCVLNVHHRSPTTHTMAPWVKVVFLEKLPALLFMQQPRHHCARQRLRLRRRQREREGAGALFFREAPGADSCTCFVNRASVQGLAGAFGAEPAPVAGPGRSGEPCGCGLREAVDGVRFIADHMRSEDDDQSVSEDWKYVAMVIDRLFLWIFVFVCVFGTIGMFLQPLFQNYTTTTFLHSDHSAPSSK
- Experiment Summary: cell-based
- Condition Parameters: IC50, 5 min incubation; in the presence of 500nM of nicotine
Readout: IC50 (µM)

compound="CNC1(C)C2CCC(C2)C1(C)C (centres unmarked) [mecamylamine]" reported_measurement=2.25
compound="C[N+](C)(C)CCCCCC[N+](C)(C)C [hexamethonium]" reported_measurement=98.3

----------
- Experimental System: human α4β2-nAChR (Homo sapiens, UniProt P17787+P43681)
- Experiment Summary: cell-based
- Condition Parameters: average IC50, comparison across subtypes, nicotine at EC90
pIC50: −log10 of the molar value.
Readout: pIC50

compound="CNC1(C)C2CCC(C2)C1(C)C (stereo not shown)" experimental_system="human α4β2-nAChR (Homo sapiens, UniProt P17787+P43681)" reported_measurement=6.27

Values compiled from paper PMC8816891.
